Tested on: SB.msgc-1
ASSAY_COMMENT: area under the dose-response curve of % viability (trapezoidal, 11 doses) (% viability x log10 concentration); higher = less cytotoxic
TEST_PARAMETERS: SB.msgc-1 (sporadic gastric cancer)
Structures can show the parent of a compound that is named as a salt.
area under the dose-response curve overview
ASSAY_READOUT: area under the dose-response curve

{"columns": ["COMPOUND", "TGT", "MEASURED_RESULT"],
 "data": [
  ["COc1cccc2c1C(=O)c1c(O)c3c(c(O)c1C2=O)C[C@@](O)(C(C)=O)C[C@@H]3O[C@H]1C[C@H](N)[C@H](O)[C@H](C)O1 [Daunorubicin] (top concentration 46.0829 µM)", "SB.msgc-1", 419],
  ["O=C(NC[C@H](O)CO)c1ccncc1Nc1ccc(I)cc1F [Pimasertib] (top concentration 46.0829 µM)", "SB.msgc-1", 459],
  ["CCOC(=O)c1c(C)n(C)c2ccc(O)cc12 [Mecarbinate] (top concentration 46.0829 µM)", "SB.msgc-1", 550],
  ["CC1C(=O)OC2C(O)C34C5CC(C(C)(C)C)C36C(OC(=O)C6O)OC4(C(=O)O5)C12O (configuration not stated) [Ginkgolide B] (top concentration 46.0829 µM)", "SB.msgc-1", 530],
  ["N\\C1=N\\C2=C(N=C[N]2COCCO)C(=O)N1 [Aciclovir] (top concentration 46.0829 µM)", "SB.msgc-1", 499],
  ["CCCCCCCc1ccc(CCc2cccc(O)c2C(=O)O)cc1 [MG-149] (top concentration 46.0829 µM)", "SB.msgc-1", 511],
  ["Cc1cccc(Nc2ccncc2[S+](=O)([O-])NC(=O)NC(C)C)c1 [Torasemide] (top concentration 46.0829 µM)", "SB.msgc-1", 521],
  ["Clc1ccc(C(c2ccccc2Cl)C(Cl)Cl)cc1 (configuration not stated) [Mitotane] (top concentration 46.0829 µM)", "SB.msgc-1", 497],
  ["CCCCOc1c(C(=O)c2c(F)cc(C)cc2F)cnc2[nH]ncc12 (top concentration 46.0829 µM)", "SB.msgc-1", 460],
  ["COc1cc2ncnc(Nc3cc(Br)c(O)c(Br)c3)c2cc1OC [WHI-P97] (top concentration 46.0829 µM)", "SB.msgc-1", 294],
  ["COC\\1=C(/OC)C(=O)\\C(=C(C)/C1=O)CCCCCCCCCCO [Idebenone] (top concentration 46.0829 µM)", "SB.msgc-1", 532],
  ["COC1=CC=C(C(=C1)OC(C)C)C/2=N/[C@@H]([C@@H](N2C(=O)N3CCNC(=O)C3)C4=CC=C(Cl)C=C4)C5=CC=C(Cl)C=C5 [Nutlin-3] (top concentration 46.0829 µM)", "SB.msgc-1", 478],
  ["COc1cc2nccc(Oc3ccc(NC(=O)NC4CC4)c(Cl)c3)c2cc1C(N)=O [Lenvatinib] (top concentration 46.0829 µM)", "SB.msgc-1", 474],
  ["CN(C)CC[C@H](c1ccc(Cl)cc1)c1ccccn1 [Chlorphenamine maleate] (top concentration 46.0829 µM)", "SB.msgc-1", 326],
  ["Cc1ccc(NC(=O)c2ccc(CN3CCN(C)CC3)cc2)cc1Nc1nc(-c2cccnc2)cs1 [Masitinib] (top concentration 46.0829 µM)", "SB.msgc-1", 443],
  ["O=C(Nc1cc2cc[nH]c2cn1)c1ccccc1 [OAC1] (top concentration 46.0829 µM)", "SB.msgc-1", 397],
  ["O=C(Nc1cccc(Cl)c1)Nc1ncc(CCNc2ncnc3ccsc23)s1 [SNS-314] (top concentration 46.0829 µM)", "SB.msgc-1", 480]
]}

---

System: SB.mhdgc-1
ASSAY_COMMENT: AC50 for growth inhibition (viability) (log10 M); higher = less potent
TEST_PARAMETERS: SB.mhdgc-1 (hereditary c.1380delA CDH1 gastric cancer)
AC50 for growth inhibition (log10 M) overview

{"columns": ["COMPOUND", "AC50 for growth inhibition (log10 M)"],
 "data": [
  ["COc1cc2ncnc(Nc3ccc(F)c(Cl)c3)c2cc1NC(=O)/C=C/CN1CCCCC1 [Dacomitinib]", -4.98],
  ["COc1ccc(-c2nc(N3CCOCC3)c3sc(CN(C)c4ncc(C(=O)NO)cn4)cc3n2)cn1 [CUDC-907]", -6.28],
  ["Cc1coc2c1C(=O)C(=O)c1c-2ccc2c1CCCC2(C)C [Tanshinone IIA]", -5.58],
  ["CC(C)(O)/C=C\\C(=O)[C@](C)(O)[C@H]1[C@H](O)C[C@]2(C)[C@@H]3CC=C4[C@@H](C=C(O)C(=O)C4(C)C)[C@]3(C)C(=O)C[C@@]12C [Cucurbitacin I]", -7.43]
]}

---

System: SB.mhdgc-1
ASSAY_COMMENT: viability at highest tested concentration (MAXR) relative to DMSO; higher = less cytotoxic
TEST_PARAMETERS: SB.mhdgc-1 (hereditary c.1380delA CDH1 gastric cancer)
Counter-ions that a name gives are not always drawn.
ASSAY_READOUT: viability (%)

{"columns": ["MOLECULE", "ASSAY_READOUT", "MEASURED_RESULT"],
 "data": [
  ["Nc1ccn([C@H]2CS[C@@H](CO)O2)c(=O)n1 [Lamivudine] (top concentration 92.1659 µM)", "viability", 73.8],
  ["Nc1ncnc2c1nc(Cl)n2[C@@H]1O[C@H](CO)[C@@H](O)[C@H]1O [8-Cl-Ado] (top concentration 46.0829 µM)", "viability", 17.6],
  ["CN(C)C/C=C/C(=O)Nc1cc2c(Nc3ccc(F)c(Cl)c3)ncnc2cc1O[C@H]1CCOC1 [Afatinib] (top concentration 46.0829 µM)", "viability", 4.33],
  ["NC(=O)c1cccc(N)c1 (top concentration 46.0829 µM)", "viability", 82.3],
  ["COc1cccc2c1CCCC2CCCN1CCN(C2CCCCC2)CC1 (stereo unspecified) [PB-28] (top concentration 46.0829 µM)", "viability", 9.75],
  ["O=C1NC(=O)/C(=C/c2ccc(-c3ccc(F)cc3O)o2)S1 (top concentration 46.0829 µM)", "viability", 81],
  ["CCOC\\1=C(/C(=O)NC2=CC=C(OC3=C(Cl)C(=NC=C3)N)C(=C2)F)C(=O)N(\\C=C1)C4=CC=C(F)C=C4 (top concentration 46.0829 µM)", "viability", 68.7],
  ["CSC1=CC(=CC=C1)NC2=NC3=C(C=N2)/C=C(C(=O)N3C)/C4=C(Cl)C=CC=C4Cl (top concentration 46.0829 µM)", "viability", 53.5],
  ["CC1OC(OC/2=C(/OC3=C(C(=CC(=C3)O)O)C2=O)C4=CC=C(O)C=C4)C(O)C(OC(C)=O)C1OC(C)=O (stereo unspecified) [SL-0101-1] (top concentration 46.0829 µM)", "viability", 83.7],
  ["Oc1ccc2c3c1O[C@H]1c4[nH]c5c(c4C[C@@]4(O)[C@@H](C2)N(CC2CC2)CC[C@]314)C[C@@]1(O)[C@H]2Cc3ccc(O)c4c3[C@@]1(CCN2CC1CC1)[C@H]5O4 [nor-Binaltorphimine] (top concentration 46.0829 µM)", "viability", 130],
  ["Cc1nc2c([nH]1)-c1ccccc1N(C(=O)c1ccc(NC(=O)c3ccccc3-c3ccccc3)cc1)CC2 [Conivaptan hydrochloride] (top concentration 46.0829 µM)", "viability", 77.5]
]}

---

area under the dose-response curve overview
Test system: SB.mhdgc-1
ASSAY_COMMENT: area under the dose-response curve of % viability (trapezoidal, 11 doses) (% viability x log10 concentration); higher = less cytotoxic
TEST_PARAMETERS: SB.mhdgc-1 (hereditary c.1380delA CDH1 gastric cancer)

{"columns": ["COMPOUND", "TGT", "area under the dose-response curve"],
 "data": [
  ["COc1ccc(OC)c(-c2nnc3ccc(-c4ccc(OC)c(O[C@@H]5CCOC5)c4)nn23)c1 (top concentration 46.0829 µM)", "SB.mhdgc-1", 524],
  ["CC(C)(Sc1ccc(CCN(CCCCC2CCCCC2)C(=O)NC2CCCCC2)cc1)C(=O)O [GW-7647] (top concentration 46.0829 µM)", "SB.mhdgc-1", 490],
  ["Nc1cccc([S+](=O)([O-])N2CCCN([S+](=O)([O-])c3ccc4c(c3)OCCO4)CC2)c1 (top concentration 46.0829 µM)", "SB.mhdgc-1", 516]
]}
